The measured values listed here are drawn from patent US20260226031A1.

Entries annotated with measured mPTP Rat liver pIC50*
Tested on: mPTP
Assay: mPTP activity (Ca2+ retention) assay in isolated rat liver mitochondria
Type: biochemical
Settings: isolated rat liver mitochondria; Fluo5N fluorescence at 10 min after CaCl2 (75 μM) bolus; DMSO 0%, 5 μM cyclosporin A 100% inhibition
measurement type: mPTP Rat liver pIC50*

{"molecule": "O=C(c1cc(O)no1)N1CC(c2ccc(F)c(F)c2)C2(CCC2)C1 (single isomer, unassigned) [Example 46a]", "target under test": "mPTP", "measurement type": "mPTP Rat liver pIC50*", "censoring qualifier": "=", "quantitative result": 6.28}
{"molecule": "CC1(C)CN(C(=O)c2cncc(=O)[nH]2)CCC1c1ccccc1 (stereo not shown)", "target under test": "mPTP", "measurement type": "mPTP Rat liver pIC50*", "censoring qualifier": "=", "quantitative result": 5.28}
{"molecule": "O=C(c1cncc(O)n1)N1CC(c2ccccc2)C2(CCC2)C1 (stereo not shown) [Example 2]", "target under test": "mPTP", "measurement type": "mPTP Rat liver pIC50*", "censoring qualifier": "=", "quantitative result": 5.80}
{"molecule": "O=C(c1ccnc(=O)[nH]1)N1CC(c2ccccc2)C2(CCC2)C1 (single isomer, unassigned) [Example 27b]", "target under test": "mPTP", "measurement type": "mPTP Rat liver pIC50*", "censoring qualifier": "<", "quantitative result": 4.52}
{"molecule": "O=C(c1cccc(=O)[nH]1)N1CC(c2ccccc2)C2(CCC2)C1 (single isomer, unassigned) [Example 26b]", "target under test": "mPTP", "measurement type": "mPTP Rat liver pIC50*", "censoring qualifier": "<", "quantitative result": 4.52}
{"molecule": "O=C(c1cc(O)no1)N1CC(c2ccc(F)cc2F)C2(CCC2)C1 (single isomer, unassigned) [Example 42b]", "target under test": "mPTP", "measurement type": "mPTP Rat liver pIC50*", "censoring qualifier": "<", "quantitative result": 4.52}
{"molecule": "O=C(c1cncc(=O)[nH]1)N1CC(c2ccccc2)C2(CCCC2)C1 (single isomer, unassigned) [Example 17a]", "target under test": "mPTP", "measurement type": "mPTP Rat liver pIC50*", "censoring qualifier": "=", "quantitative result": 6}
